Test system: off-target genomic sites
Assay: Off-target oligo insertion based assay in HEK293_Cas9 cells, dgRNAs and sgRNAs (Tables 23, 24)
Format: cell-based, human
Conditions: Table 24; TTR sgRNAs in HekCas9 cells, insertion detection method
Description: An oligo insertion based assay (See, e.g., Tsai et al., Nature Biotechnology 33, 187-197; 2015) was used to determine potential off-target genomic sites cleaved by Cas9 targeting TTR. […] The gDNA was quantified using the Qubit High Sensitivity dsDNA kit (Life Technologies). […] Additionally, a subset of the guides was assessed for off-target potential as modified sgRNAs in the Hek_Cas9 cells via the oligo based insertion method described above. […]
Strand notation (5' to 3'): a small letter for the sugar, then the base; units joined by * are phosphorothioate-linked, units joined directly phosphodiester-linked; [ ] holds rarer units or linkages, { } end groups; capitals alone tell only the bases. m = 2'-O-methyl; r = 2'-OH (RNA)
experimentalReadout: # Sites (off-target integration sites detected)
The answer should be a number; do not append a unit.

// worked examples, # Sites (off-target integration sites detected) included
| molecule | measurement |
| --- | --- |
| G000568: TTR sgRNA modified sequence, Human, SEQ ID No. 110; guide sequence of CR003391 (nucleic acid) guide: mG*mG*mC*rUrGrUrCrGrUrCrArCrCrArArUrCrCrCrArGrUrUrUrUrArGrAmGmCmUmAmGmAmAmAmUmAmGmCrArArGrUrUrArArArArUrArArGrGrCrUrArGrUrCrCrGrUrUrArUrCrAmAmCmUmUmGmAmAmAmAmAmGmUmGmGmCmAmCmCmGmAmGmUmCmGmGmUmGmCmU*mU*mU*mU | 937 |
| G000482: TTR sgRNA modified sequence, Human, SEQ ID No. 89; guide sequence of CR003365 (nucleic acid) guide: mU*mG*mU*rArGrArArGrGrGrArUrArUrArCrArArArGrGrUrUrUrUrArGrAmGmCmUmAmGmAmAmAmUmAmGmCrArArGrUrUrArArArArUrArArGrGrCrUrArGrUrCrCrGrUrUrArUrCrAmAmCmUmUmGmAmAmAmAmAmGmUmGmGmCmAmCmCmGmAmGmUmCmGmGmUmGmCmU*mU*mU*mU | 13 |
| G000491: TTR sgRNA modified sequence, Human, SEQ ID No. 98; guide sequence of CR003338 (nucleic acid) guide: mA*mU*mA*rCrCrArGrUrCrCrArGrCrArArGrGrCrArGrGrUrUrUrUrArGrAmGmCmUmAmGmAmAmAmUmAmGmCrArArGrUrUrArArArArUrArArGrGrCrUrArGrUrCrCrGrUrUrArUrCrAmAmCmUmUmGmAmAmAmAmAmGmUmGmGmCmAmCmCmGmAmGmUmCmGmGmUmGmCmU*mU*mU*mU | 28 |
| G000480: TTR sgRNA modified sequence, Human, SEQ ID No. 87; guide sequence of CR003353 (nucleic acid) guide: mA*mA*mA*rGrGrCrUrGrCrUrGrArUrGrArCrArCrCrUrGrUrUrUrUrArGrAmGmCmUmAmGmAmAmAmUmAmGmCrArArGrUrUrArArArArUrArArGrGrCrUrArGrUrCrCrGrUrUrArUrCrAmAmCmUmUmGmAmAmAmAmAmGmUmGmGmCmAmCmCmGmAmGmUmCmGmGmUmGmCmU*mU*mU*mU | 11 |
| G000488: TTR sgRNA modified sequence, Human, SEQ ID No. 95; guide sequence of CR003346 (nucleic acid) guide: mA*mA*mA*rGrUrUrCrUrArGrArUrGrCrUrGrUrCrCrGrGrUrUrUrUrArGrAmGmCmUmAmGmAmAmAmUmAmGmCrArArGrUrUrArArArArUrArArGrGrCrUrArGrUrCrCrGrUrUrArUrCrAmAmCmUmUmGmAmAmAmAmAmGmUmGmGmCmAmCmCmGmAmGmUmCmGmGmUmGmCmU*mU*mU*mU | 0 |

Continue with the molecule presented below.
Query: Looking for the measured # Sites (off-target integration sites detected) of G000487: TTR sgRNA modified sequence, Human, SEQ ID No. 94; guide sequence of CR003357 (nucleic acid) guide: mU*mU*mC*rUrUrUrGrGrCrArArCrUrUrArCrCrCrArGrGrUrUrUrUrArGrAmGmCmUmAmGmAmAmAmUmAmGmCrArArGrUrUrArArArArUrArArGrGrCrUrArGrUrCrCrGrUrUrArUrCrAmAmCmUmUmGmAmAmAmAmAmGmUmGmGmCmAmCmCmGmAmGmUmCmGmGmUmGmCmU*mU*mU*mU , can you help?
Result: 14
